Listed here: items and their measured Population Mitochondria Different-Phenotype (%).
Tested on: HEK-293T
Experiment: Multiplex assay against HEK293T
Format: toxicity, cell-based
Conditions: human, 24 h, 1 µM, compound concentration 1 uM, replicate 2
Return type: number; implicit unit %.

Look over these answered cases.
>  <MOLECULE>
Cl.NC[C@@H]1O[C@H](C23CC4CC(CC(C4)C2)C3)Cc2c1ccc(O)c2O

>  <ASSAY TARGET>
HEK-293T

>  <UNIT LABEL>
%

>  <VALUE MEASURED>
20

$$$$
>  <MOLECULE>
CN(c1cc(C(F)(F)F)nc(OCCC(=O)O)n1)c1cccc2c1CCC2

>  <ASSAY TARGET>
HEK-293T

>  <UNIT LABEL>
%

>  <VALUE MEASURED>
13

$$$$
>  <MOLECULE>
Cc1c(P(=S)(c2ccccc2)c2ccccc2)n2ccccc2[n+]1C/C=C/c1ccccc1.[Br-]

>  <ASSAY TARGET>
HEK-293T

>  <UNIT LABEL>
%

>  <VALUE MEASURED>
98

$$$$
>  <MOLECULE>
CC[C@@H]1C(=O)N(C)c2cnc(Nc3ccc(C(=O)NC4CCN(C)CC4)cc3OC)nc2N1C1CCCC1

>  <ASSAY TARGET>
HEK-293T

>  <UNIT LABEL>
%

>  <VALUE MEASURED>
22

$$$$
>  <MOLECULE>
CC[C@H](Nc1ncnc2[nH]cnc12)c1nc2cccc(F)c2c(=O)n1-c1ccccc1

>  <ASSAY TARGET>
HEK-293T

>  <UNIT LABEL>
%

>  <VALUE MEASURED>
4

$$$$
>  <MOLECULE>
NC(=O)c1ccc2nc(-c3ccc(C4(N)CCC4)cc3)c(-c3ccccc3)n2n1

>  <ASSAY TARGET>
HEK-293T

>  <UNIT LABEL>
%

>  <VALUE MEASURED>
5

$$$$

Sample COc1cc(Nc2ccnc3ccc(Br)cc23)cc(OC)c1OC ; Population Mitochondria Different-Phenotype (%) observed: 55

---

Parameter Population Membrane Permeable-Phenotype (%): see the listing below.
Tested on: HEK-293T
Test: Multiplex assay against HEK293T
Format: toxicity, cell-based
Conditions: human, 12 h, 10 µM, compound concentration 10 uM, replicate 2
Write it as a number; the unit % goes unstated.

// worked examples, Population Membrane Permeable-Phenotype (%) included
>  <COMPOUND>
CC(C)[C@H](CO)Nc1nc(Nc2cccc(Cl)c2)c2ncn(C(C)C)c2n1 [PURVALANOLA]

>  <UNIT LABEL>
%

>  <VALUE MEASURED>
5

$$$$
>  <COMPOUND>
CC(/C=C1\SC(=S)N(CCCC(=O)Nc2ccc(C(=O)O)c(O)c2)C1=O)=C\c1ccccc1

>  <UNIT LABEL>
%

>  <VALUE MEASURED>
5

$$$$
>  <COMPOUND>
CCCc1cc(C)[nH]c(=O)c1CNC(=O)c1cc(-c2ccc(N3CCN(C(C)C)CC3)nc2)cc2c1cnn2C(C)C

>  <UNIT LABEL>
%

>  <VALUE MEASURED>
11

$$$$
>  <COMPOUND>
C=CC(=O)Nc1cc(-n2c(=O)ccc3cnc4ccc(-c5ccc(NS(C)(=O)=O)cc5)cc4c32)ccc1C

>  <UNIT LABEL>
%

>  <VALUE MEASURED>
9

$$$$
>  <COMPOUND>
CCOc1ccn(-c2ccc(F)cc2)c(=O)c1C(=O)Nc1ccc(Oc2ccnc(N)c2Cl)c(F)c1 [BMS-777607]

>  <UNIT LABEL>
%

>  <VALUE MEASURED>
2

$$$$

// COc1cc(C)c(Sc2cnc(NC(=O)c3ccc(CNC(C)C(C)(C)C)cc3)s2)cc1C(=O)N1CCN(C(C)=O)CC1 (configuration not stated) : Population Membrane Permeable-Phenotype (%) value = 1

For this compound ( CC(C)c1cc(Nc2nc(N3CCC[C@H](N)C3)ncc2C(N)=O)cc(C(C)C)n1 ), measured Population Membrane Permeable-Phenotype (%) is 10

---

Tested on: HEK-293T
Assay: Multiplex assay against HEK293T;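 on Population Tubulin-Different-Phenotype (%): share of the cells with healthy nuclei that show this phenotype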
Format: toxicity, cell-based
Details: human, 24 h, 1 µM, compound concentration 1 uM, replicate 2
Label yes (1) when Population Tubulin-Different-Phenotype (%) is strictly below 30%; at or above that, label no (0).

Some solved entries appear below for comparison.
>  <COMPOUND>
CCCCN(CC)c1nc(C)nc2c1c(C)cn2-c1c(C)cc(C)cc1C.Cl

>  <CLASSIFICATION>
yes (1)

$$$$
>  <COMPOUND>
CCCCCNC(=N)N/N=C/c1c[nH]c2ccc(OC)cc12.O=C(O)/C=C\C(=O)O [TEGASEROD MALEATE]

>  <CLASSIFICATION>
no (0)

$$$$
>  <COMPOUND>
CC[C@@H]1C(=O)N(C)c2cnc(Nc3ccc(C(=O)NC4CCN(C)CC4)cc3OC)nc2N1C1CCCC1

>  <CLASSIFICATION>
no (0)

$$$$
>  <COMPOUND>
CN1C(=O)[C@@H](NC(=O)c2cc3ccccc3[nH]2)N=C(c2ccccc2)c2ccccc21 [DEVAZEPIDE]

>  <CLASSIFICATION>
no (0)

$$$$

Shift focus to the following entry.
Hi there! Is Population Tubulin-Different-Phenotype (%) for Cl.NC[C@@H]1O[C@H](C23CC4CC(CC(C4)C2)C3)Cc2c1ccc(O)c2O below 30%, do you know?
no (0)

---

System: HEK-293T
Test: Multiplex assay against HEK293T
Format: toxicity, cell-based
Conditions: human, 12 h, 1 µM, compound concentration 1 uM, replicate 1
Reported Population Membrane Permeable-Phenotype (%) values for a set of compounds
A bare number is not enough; add the unit after it.

The cases that follow already have their Population Membrane Permeable-Phenotype (%) on record.
>  <COMPOUND>
Cl.NC[C@@H]1O[C@H](C23CC4CC(CC(C4)C2)C3)Cc2c1ccc(O)c2O

>  <VALUE MEASURED>
2%

$$$$
>  <COMPOUND>
CC(C)[C@H](CO)Nc1nc(Nc2cccc(Cl)c2)c2ncn(C(C)C)c2n1

>  <VALUE MEASURED>
5%

$$$$

Record CN(c1cc(C(F)(F)F)nc(OCCC(=O)O)n1)c1cccc2c1CCC2 , field Population Membrane Permeable-Phenotype (%): 3%

Value of measured Population Membrane Permeable-Phenotype (%) for the entry C[C@@H](Oc1cc(-n2cnc3ccc(CN4CCN(C)CC4)cc32)sc1C(N)=O)c1ccccc1C(F)(F)F : 5%

Record summary for N#CCNC(=O)c1ccc(-c2ccnc(Nc3ccc(N4CCOCC4)cc3)n2)cc1 : reported Population Membrane Permeable-Phenotype (%) = 0%

Kindly note the recorded Population Membrane Permeable-Phenotype (%) for CC(C)c1cc(Nc2nc(N3CCC[C@H](N)C3)ncc2C(N)=O)cc(C(C)C)n1 , which is 9%

Kindly note the recorded Population Membrane Permeable-Phenotype (%) for Cc1c(Nc2ccc(S(=O)(=O)N3CCN(C)CC3)cc2F)nc2ccc(Nc3cnn(C4CC4)c3)cn2c1=O , which is 15%

Lookup result for CC[C@H](Nc1ncnc2[nH]cnc12)c1nc2cccc(F)c2c(=O)n1-c1ccccc1 ; measured Population Membrane Permeable-Phenotype (%): 12%

GET /value?item= Cl.Cn1c2c(c3ccc(Cl)c(Cl)c31)C(C#N)C1(CCNCC1)NC2=O (centres undefined) &field=Population Membrane Permeable-Phenotype (%) returns 8%

---

Catalogue of Population Mitochondria Different-Phenotype (%) values
Tested on: HEK-293T
Assay: Multiplex assay against HEK293T
Type: toxicity, cell-based
Settings: human, 12 h, 1 µM, compound concentration 1 uM, replicate 1
Write down the numeric answer in % and omit the unit.

Some compounds with recorded Population Mitochondria Different-Phenotype (%):
>  <COMPOUND>
CC(/C=C1\SC(=S)N(CCCC(=O)Nc2ccc(C(=O)O)c(O)c2)C1=O)=C\c1ccccc1

>  <ASSAY TARGET>
HEK-293T

>  <VALUE MEASURED>
68

$$$$
>  <COMPOUND>
C=CC(=O)Nc1cc(-n2c(=O)ccc3cnc4ccc(-c5ccc(NS(C)(=O)=O)cc5)cc4c32)ccc1C

>  <ASSAY TARGET>
HEK-293T

>  <VALUE MEASURED>
76

$$$$
>  <COMPOUND>
C[C@@H](Oc1cc(-n2cnc3ccc(CN4CCN(C)CC4)cc32)sc1C(N)=O)c1ccccc1C(F)(F)F [GSK-461364]

>  <ASSAY TARGET>
HEK-293T

>  <VALUE MEASURED>
98

$$$$
>  <COMPOUND>
CC(Cc1ccc(O)c(O)c1)C(C)Cc1ccc(O)c(O)c1 (stereo not drawn) [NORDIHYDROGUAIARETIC ACID]

>  <ASSAY TARGET>
HEK-293T

>  <VALUE MEASURED>
81

$$$$
>  <COMPOUND>
Cl.Cn1c2c(c3ccc(Cl)c(Cl)c31)C(C#N)C1(CCNCC1)NC2=O (stereo not drawn)

>  <ASSAY TARGET>
HEK-293T

>  <VALUE MEASURED>
6

$$$$
>  <COMPOUND>
CCOC(=O)CCNc1cc(N2CCc3ccccc3CC2)nc(-c2ccccn2)n1

>  <ASSAY TARGET>
HEK-293T

>  <VALUE MEASURED>
3

$$$$
>  <COMPOUND>
CC[C@@H]1C(=O)N(C)c2cnc(Nc3ccc(C(=O)NC4CCN(C)CC4)cc3OC)nc2N1C1CCCC1 [BI-2536]

>  <ASSAY TARGET>
HEK-293T

>  <VALUE MEASURED>
10

$$$$

compound N#CCNC(=O)c1ccc(-c2ccnc(Nc3ccc(N4CCOCC4)cc3)n2)cc1 [MOMELOTINIB] , Population Mitochondria Different-Phenotype (%) observed: 61
